target: human GLP-1 receptor (GLP-1R) (human, UniProt P43220 24-463); test: cell-based or functional assay; note: reference of the scale not given here
Label Criterion met when hGLP1R cAMP EC50 ratio is strictly below 0.6; otherwise label Criterion not met.

Previously resolved entries follow.
Binder	Category
YXEGTXTSDYSILLDKKAQXAFIEYLIAGGPSSG (Aib2, αMeF(2F)6, (2-[2-(2-Amino-ethoxy)-ethoxy]-acetyl)2-(γ-Glu)-CO-(CH2)16-CO2H on K17, Aib20, C-terminal NH2) [Example 313]	Criterion not met
XXEGTFTSDYSIXLDXKAQXAFVEYLIAGGPSSGAPPPS (D-Tyr1, Aib2, αMeL13, Orn16, (2-[2-(2-Amino-ethoxy)-ethoxy]-acetyl)2-(γ-Glu)-CO-(CH2)18-CO2H on K17, Aib20, C-terminal NH2) [Example 358]	Criterion met
YXEGTFTSDYSILLDKKAQTAFIEYLIEGGPSSGAPPPS (Aib2, (2-[2-(2-Amino-ethoxy)-ethoxy]-acetyl)2-(γ-Glu)-CO-(CH2)18-CO2H on K17, C-terminal NH2) [Example 262]	Criterion not met

Problem: For the binder YXEGTFTSDYSILLDKKAQAAFIEYLIEGGPSSGAPPPS (Aib2, (2-[2-(2-Amino-ethoxy)-ethoxy]-acetyl)2-(γ-Glu)-CO-(CH2)18-CO2H on K17, C-terminal NH2) [Example 253] , is hGLP1R cAMP EC50 ratio under 0.6?
Criterion not met

Does this binder meet the criterion hGLP1R cAMP EC50 ratio < 0.6? XXEGTFTSDYSIXLDKKAQXEFIEXLIAGGPSSGAPPPS (D-Tyr1, Aib2, αMeL13, (2-[2-(2-Amino-ethoxy)-ethoxy]-acetyl)2-(γ-Glu)-CO-(CH2)18-CO2H on K17, Aib20, αMeY25, C-terminal NH2) [Example 292]
Criterion met

Is the reported hGLP1R cAMP EC50 ratio for YXEGTFTSDYSILLDKKAQQAFIEYLIEGGPSSGAPPPS (Aib2, (2-[2-(2-Amino-ethoxy)-ethoxy]-acetyl)2-(γ-Glu)-CO-(CH2)18-CO2H on K17, C-terminal NH2) [Example 254] strictly below 0.6?
Criterion not met
